# Tested on: U251 CNS
# experimentNotes: NCI tumour cell line growth inhibition, 48 h
Let's look at some molecules and their measured TGI.

# molecule, TGI
data = [
    ("CCOC(=O)c1ccc(NCc2ccc3nc(OC)c(OC)nc3c2)cc1", "> 100 µM"),
    ("CC(=O)O[C@H]1CC[C@@]2(C)C(=CC[C@H]3C(CC#N)[C@@](C)(C#N)CCC32)C1 (stereo partly drawn)", "> 100 µM"),
    ("N#CC12CC(C=O)=C(N)C1(C#N)CC(C=O)=C2N (stereo not drawn)", "> 100 µM"),
]

----------
# Tested on: NCI/ADR-RES ovarian
# experimentNotes: NCI tumour cell line growth inhibition, 48 h
reportedMetric: TGI

# compound, reportedMetric, observedResult
data = [
    ("C/C(COc1ccc2oc(-c3ccccc3)cc(=O)c2c1)=N\\O", "TGI", "> 100 µM"),
    ("Cc1ccc(F)c2[nH]c(-c3ccccc3)cc(=O)c12", "TGI", "> 100 µM"),
    ("CCOC(=O)C1=NN(c2ccc(C)cc2)C2(c3ccccc3)C=C(c3ccccc3)N(C)CCN12 (stereo unspecified)", "TGI", "> 100 µM"),
    ("COc1ccc(Cc2ccc3[nH]c(=O)cc(C)c3c2)cc1S(=O)(=O)O", "TGI", "> 100 µM"),
    ("O=C1NN(C(=O)c2ccccc2)C(c2ccc(Cl)c(Cl)c2)=C/C1=C\\c1ccccc1[N+](=O)[O-]", "TGI", "> 6.75 µM"),
    ("Cc1ccc(NC(=O)CCc2nnc3s/c(=C\\C=C\\c4ccccc4)c(=O)n23)cc1", "TGI", "> 78.6 µM"),
]
